- System: NCI-H1792
- TEST: relative viability (nuclei count vs DMSO), 5 days (fraction); higher = more cells survive
- RUN CONDITIONS: first compound 0.253 µM
Threshold 0.5. relative viability below it: fulfilled. relative viability at it or above: not fulfilled.

Examples from the recorded data:
MOLECULE | ASSIGNED CATEGORY
C=C1C(=O)O[C@@H](CCCCCCCC)[C@@H]1C(=O)O [C-75] + COc1cccc2cc(-c3nc([C@H]4CC[C@H](C(=O)O)CC4)n4ncnc(N)c34)[nH]c12 [OSI-027] (partner 0.5 µM) | not fulfilled
Oc1nc(-c2ccc(C(F)(F)F)cc2)nc2c1CSCC2 [XAV939] + NC(=O)Nc1cc(-c2cccc(F)c2)sc1C(=O)N[C@H]1CCCNC1 [AZD7762] (partner 0.2 µM) | not fulfilled
C=C1C(=O)O[C@@H](CCCCCCCC)[C@@H]1C(=O)O [C-75] + N=C(N)NC(=N)NCCc1ccccc1 [Phenformin] (partner 250 µM) | fulfilled
Oc1nc(-c2ccc(C(F)(F)F)cc2)nc2c1CSCC2 [XAV939] + Nc1ncn([C@H]2C[C@H](O)[C@@H](CO)O2)c(=O)n1 [Decitabine] (partner 2 µM) | fulfilled
C=C1C(=O)O[C@@H](CCCCCCCC)[C@@H]1C(=O)O [C-75] + CS(=O)(=O)N1CCN(Cc2cc3nc(-c4cccc5[nH]ncc45)nc(N4CCOCC4)c3s2)CC1 [Pictilisib] (partner 1 µM) | fulfilled

Kindly review the next molecule as well.
Prompt line: Hello, I'm reviewing records and need to know if relative viability of Oc1nc(-c2ccc(C(F)(F)F)cc2)nc2c1CSCC2 [XAV939] + Cc1nc(Nc2ncc(C(=O)Nc3c(C)cccc3Cl)s2)cc(N2CCN(CCO)CC2)n1 [Dasatinib] (partner 0.075 µM) is below 0.5. Could you check?
Response line: not fulfilled

###

- System: NCI-H1755
- TEST: relative viability (nuclei count vs DMSO), 5 days (fraction); higher = more cells survive
- RUN CONDITIONS: first compound 0.04 µM
Threshold 0.8. relative viability below it: Condition met. relative viability at it or above: Condition not met.

Examples from the recorded data:
COMPOUND | TARGET OR TEST SYSTEM | ASSIGNED CATEGORY
O=C(O)c1ccc(-c2c[nH]c3ncc(-c4ccccc4)cc23)cc1C1CCCC1 + Cc1nc(NC(=O)N2CCC[C@H]2C(N)=O)sc1-c1ccnc(C(C)(C)C(F)(F)F)c1 [Alpelisib] (partner 2 µM) | NCI-H1755 | Condition not met
O=C(O)c1ccc(-c2c[nH]c3ncc(-c4ccccc4)cc23)cc1C1CCCC1 + CC(C)C[C@H](NC(=O)[C@H](Cc1ccccc1)NC(=O)c1cnccn1)B(O)O [Bortezomib] (partner 0.002 µM) | NCI-H1755 | Condition not met
O=C(O)c1ccc(-c2c[nH]c3ncc(-c4ccccc4)cc23)cc1C1CCCC1 + C[C@@H](Oc1cc(-c2cnn(C3CCNCC3)c2)cnc1N)c1c(Cl)ccc(F)c1Cl [Crizotinib] (partner 1 µM) | NCI-H1755 | Condition not met
O=C(O)c1ccc(-c2c[nH]c3ncc(-c4ccccc4)cc23)cc1C1CCCC1 + Nc1ncn([C@H]2C[C@H](O)[C@@H](CO)O2)c(=O)n1 [Decitabine] (partner 2 µM) | NCI-H1755 | Condition met
O=C(O)c1ccc(-c2c[nH]c3ncc(-c4ccccc4)cc23)cc1C1CCCC1 + COc1cccc2cc(-c3nc([C@H]4CC[C@H](C(=O)O)CC4)n4ncnc(N)c34)[nH]c12 [OSI-027] (partner 0.5 µM) | NCI-H1755 | Condition met

Prompt line: Hello, I'm reviewing records and need to know if relative viability of O=C(O)c1ccc(-c2c[nH]c3ncc(-c4ccccc4)cc23)cc1C1CCCC1 + CCNC(=O)c1noc(-c2cc(C(C)C)c(O)cc2O)c1-c1ccc(CN2CCOCC2)cc1 [Luminespib] (partner 0.01 µM) is below 0.8. Could you check?
Response line: Condition met

Prompt line: Hello, I'm reviewing records and need to know if relative viability of O=C(O)c1ccc(-c2c[nH]c3ncc(-c4ccccc4)cc23)cc1C1CCCC1 + C[C@]1(O)C[C@@H](c2nc(-c3ccc4ccc(-c5ccccc5)nc4c3)c3c(N)nccn32)C1 [Linsitinib] (partner 1 µM) is below 0.8. Could you check?
Response line: Condition not met
